From: the supplement of paper PMC7125110

Below, each entry is listed with its recorded self-cleavage kobs at 2500 uM GlcN6P.
B1: glmS ribozyme (parent)
chain: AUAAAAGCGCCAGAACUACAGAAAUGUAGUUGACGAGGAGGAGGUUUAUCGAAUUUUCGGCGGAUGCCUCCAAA

variants of: B1; test: self-cleavage kobs at 2500 uM GlcN6P; higher = faster cleavage; RNA array; settings: with glucosamine-6-phosphate
Fewer inactive variants are shown than the library holds.

- Residue sequence: "AUAAAAGCGCCAGAACUACAGAAAUGUAGUUGACGAGGAGGAGGUGUAUCGAAUUUUCGGAGGAUGCCUGCAAA"
  self-cleavage kobs at 2500 uM GlcN6P: "< 1e-05 s⁻¹"
- Residue sequence: "AUAAAAGCACCAGAACUACAGAAAUGUAGUUGACGAGGAGGAGGUUUAUCUCAUUUUCGGCGGAUGCCUCCAAA"
  self-cleavage kobs at 2500 uM GlcN6P: "< 1e-05 s⁻¹"
- Residue sequence: "AUAAAAGCGCCAGGACUACAGAAAUGUAGUUGACUAUGAGGAGUUUUAUCGAAUUUUCGGCGGAUGCCUCUAAA"
  self-cleavage kobs at 2500 uM GlcN6P: "< 1e-05 s⁻¹"
- Residue sequence: "AUAAAAGCGCCAGAACUACAGAAAUGUAGUUGACGAGGGGGAGGUUUAUUGAAUAUUCGGCGGAUGCCUUCAAA"
  self-cleavage kobs at 2500 uM GlcN6P: "4.43e-05 s⁻¹"
- Residue sequence: "AUAAAAGCUCCAGAACUACAGAAAUGUAGUUGACGAGGAGGAGGUUUAUCGAAUUUUCGGAGGAUGCCUCCAAA"
  self-cleavage kobs at 2500 uM GlcN6P: "0.000927 s⁻¹"
- Residue sequence: "AUAAAAGCGCCUGAACUACAGAAAUGUAGUUGACGAGGAGGAGGUUUAUCGUAUUUUCGGCGGAUGCCUCCAAA"
  self-cleavage kobs at 2500 uM GlcN6P: "0.000681 s⁻¹"

input: What value of measured self-cleavage kobs at 2500 uM GlcN6P is listed for "AUAAAAGCGCCAAAACUACAGAAAUGUAUUUGACGAGGAGGAGGUUUAUCGAAUUUUCGUCGGAUACCUCCAAA" ?
output: < 1e-05 s⁻¹

input: Also, "AUAAAAGCGCCAGAACUACAGAAAUGUAGUUGACGAGGAGCAGGUUUAUCGAAUUUUCUGCGGAUGUCUCCAAA" please.
output: < 1e-05 s⁻¹

input: Also, "AUAAAAGCGCCAGAACUACAGAAAUGUAGUUGACGAGGAGGAGGUUUACCCAAUUUUCGGCGGAUGCCUCCAAA" please.
output: < 1e-05 s⁻¹

input: Also, "AUAAAAGCGCCAGACCUACAGAAAUGUAGUUGACGAGGAGGAGGUUUAUCGAAUAUUCGCCGGAUGCCUCCAAA" please.
output: < 1e-05 s⁻¹

input: Also, "AUAAAAUCGCCAGAACUACAGAAAUGUAGUUGGCGAGGAGGAGGUUUAUCGAAUUUUCGGCGGAUGCCUCCAAA" please.
output: < 1e-05 s⁻¹

input: Also, "AUAAAAGCGCCAAAACUACAGAAAUGUAGUUGACGAGGAGGAGGUUUAUCGAAUUUUCGGCGGAUGCGUCGAAA" please.
output: 0.000141 s⁻¹

input: Also, "AUAAAAGCGCCAGAACUACAGAAAUGUAGUUGACGAGGAGGAGGUUUAUCGUAUUUUUGGCGGAUGCCUCCAAA" please.
output: < 1e-05 s⁻¹

input: Also, "AUAAAAGUGCCAGAACUACAGAAAUGUAUUUGACGUGGAGGAGGUUUAUCGAAUUUUCGGCGGAUGCCUCCAAA" please.
output: < 1e-05 s⁻¹

input: Also, "AUAAAAGCGCCAGAACUACAGAAAUGUAGUUGACGAGGAGGAGGUUAAUCGAGUUUUCGGCGGAUGCCUACAAA" please.
output: 0.000177 s⁻¹

input: Also, "AUAAAAGCGCCAGAACUACAGAAAUGUAGUUGACGAGGAGGAGGUGUAUCGAAUGUUCGGCGGAUGCCGCCAAA" please.
output: 6.16e-05 s⁻¹

input: Also, "AUAAAAGCGUCAUAACUACAGAAAUGUAGUUGACGAGGAGGAGGUUUAUCGAAUUUUCGGCGGAUGCCUCCAAA" please.
output: < 1e-05 s⁻¹
